The reported measurements were obtained from patent US20090136936A1.

targetUnderTest: T1, extracellular domain of aglycosylated FcγRIIIa purified from E. coli inclusion bodies, FITC-labeled (human, UniProt P08637 17-208)
T1 construct: extracellular domain; also called FcγRIIIa-FITC
T1 sequence (P08637 17-208): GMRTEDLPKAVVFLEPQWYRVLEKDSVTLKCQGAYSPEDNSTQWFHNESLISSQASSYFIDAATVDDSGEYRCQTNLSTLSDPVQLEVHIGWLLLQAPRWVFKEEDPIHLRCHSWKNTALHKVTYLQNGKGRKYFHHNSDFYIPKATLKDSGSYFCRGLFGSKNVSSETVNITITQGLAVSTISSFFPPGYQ
experimentSummary: flow cytometry of spheroplasts displaying the Fc, labelled with FcγRIIIa-FITC
propertyLabel: M (mean fluorescence intensity)
// return just the number, without any unit appended

Entry Fc217 (LGDGSPCKAN insertion between N297 and S298), aglycosylated Fc mutant (other) DKTHTCPPCPAPELLGGPSVFLFPPKPKDTLMISRTPEVTCVVVDVSHEDPEVKFNWYVDGVEVHNAKTKPREEQYNLGDGSPCKANSTYRVVSVLTVLHQDWLNGKEYKCKVSNKALPAPIEKTISKAKGQPREPQVYTLPPSRDELTKNQVSLTCLVKGFYPSDIAVEWESNGQPENNYKTTPPVLDSDGSFFLYSKLTVDKSRWQQGNVFSCSVMHEALHNHYTQKSLSLSPGK : reported M (mean fluorescence intensity) = ? 500

Name the reported M (mean fluorescence intensity) value associated with the binder Fc207 (QLISHYRHLT insertion between N297 and S298), aglycosylated Fc mutant (other) DKTHTCPPCPAPELLGGPSVFLFPPKPKDTLMISRTPEVTCVVVDVSHEDPEVKFNWYVDGVEVHNAKTKPREEQYNQLISHYRHLTSTYRVVSVLTVLHQDWLNGKEYKCKVSNKALPAPIEKTISKAKGQPREPQVYTLPPSRDELTKNQVSLTCLVKGFYPSDIAVEWESNGQPENNYKTTPPVLDSDGSFFLYSKLTVDKSRWQQGNVFSCSVMHEALHNHYTQKSLSLSPGK 143

Give the measured M (mean fluorescence intensity) of Fc209 (F241L, K326E, EVPLVWMWVS insertion between N297 and S298), aglycosylated Fc mutant (other) DKTHTCPPCPAPELLGGPSVLLFPPKPKDTLMISRTPEVTCVVVDVSHEDPEVKFNWYVDGVEVHNAKTKPREEQYNEVPLVWMWVSSTYRVVSVLTVLHQDWLNGKEYKCKVSNEALPAPIEKTISKAKGQPREPQVYTLPPSRDELTKNQVSLTCLVKGFYPSDIAVEWESNGQPENNYKTTPPVLDSDGSFFLYSKLTVDKSRWQQGNVFSCSVMHEALHNHYTQKSLSLSPGK . 291

What measured M (mean fluorescence intensity) goes with Fc216 (WQVFNKYTKP insertion between N297 and S298), aglycosylated Fc mutant (other) DKTHTCPPCPAPELLGGPSVFLFPPKPKDTLMISRTPEVTCVVVDVSHEDPEVKFNWYVDGVEVHNAKTKPREEQYNWQVFNKYTKPSTYRVVSVLTVLHQDWLNGKEYKCKVSNKALPAPIEKTISKAKGQPREPQVYTLPPSRDELTKNQVSLTCLVKGFYPSDIAVEWESNGQPENNYKTTPPVLDSDGSFFLYSKLTVDKSRWQQGNVFSCSVMHEALHNHYTQKSLSLSPGK ? 496
